Reported phosphorylation enrichment values follow for various sequences
# System: Fer (mouse);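 note: 11-residue human phosphosite peptides and single-mutation variants displayed on the E. coli surface, counted by deep sequencing, each peptide's frequency after selection divided by its frequency in the unselected input library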;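 note: frequency after pTyr selection over input frequency; kinase dosed for 20-30% of maximal phosphorylation in three min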
# assayInfo: phosphorylation enrichment, bacterial display (enrichment ratio); higher = better substrate or ligand; peptides without Tyr show the background
Please respond with just the number, no unit label.

See these solved cases before continuing.
KRISCYEASFQ [PFKFB3_Y194_YF] :: 0.593
PLRADYLIARV [HLCS_Y635] :: 0.515
GSETPYMDRTP [ESS2_Y335_V336M] :: 0.363
LGPSDYFGEIV [PRKAR1A_Y323_A328V] :: 0.586
DTKPVYQNLRQ [BOD1_Y82_A81V] :: 0.507

Here is the next item to consider.
Asked: So what's the measured phosphorylation enrichment for this one? AEEEIYGEFEA [Src_opt_1995]
Given back: 0.923
